So I've got a bunch of molecules here, and I need their Viscosity (20° C.) values.
- Measurement Notes: Measurement of dynamic viscosity
- Type: physicochemical
- Protocol Conditions: solution of 10% by mass of pigment in decane
- Procedure: Note that, the dynamic viscosity is a value measured by adjusting a solution at 10% by mass of the pigment in decane to 20° C. using a viscometer (500 TYPE, manufactured by Toki Sangyo Co., Ltd.). For the azomethine pigments shown in the following Table 7, a solution of 10% by mass of each pigment in decane was prepared and an R-type viscometer (500 TYPE, manufactured by Toki Sangyo Co., Ltd.) was used to measure the viscosity thereof at 20° C.
Numbers only, in mPa · s.

Here are 3 molecules together with their reported answers.
{"columns": ["Molecule", "Property Label", "Result Units", "Quantitative Result"],
 "data": [
  ["CCCCCCCCNC(=O)C1=CC(=Nc2ccc(N(CCCCCCCC)CCCCCCCC)cc2)C=C(C)C1=O", "Viscosity (20° C.)", "mPa · s", 1.4],
  ["CCCCCCCCN(CCCCCCCC)c1ccc(N=C2C(C(C)(C)C)=Nn3nc(-c4ccccc4)nc32)c(C)c1", "Viscosity (20° C.)", "mPa · s", 1.2],
  ["CCCCCCCCOc1cc(N(CCCC)CCCC)ccc1N=C1C(=O)ON=C1c1ccccc1", "Viscosity (20° C.)", "mPa · s", 1.2]
]}

Batch: Viscosity (20° C.) for all items listed.
1. CCCCCCCCN1CCc2cc(/N=C3/C(C)=Nn4nc(C(C)CNC(=O)C(CCCCCC)Oc5ccc(C(C)(C)CC)cc5C(C)(C)CC)nc43)ccc21 (stereo not shown)
2. CCCCCCCCCCCCCCCCNC(=O)C1=CC(=Nc2ccc(N(CC)CC)cc2CC)c2ccccc2C1=O
3. CCCCCCCCCCCCCCCCCCNC(=O)C1=CC(=Nc2ccc(N(CC)CC)cc2OC)c2ccccc2C1=O
4. CCCCCCCCN(CCCCCCCC)c1ccc(N=C2C(=O)N(c3ccccc3)N=C2C)c(C)c1

1. 1.2
2. 1.5
3. 1.5
4. 1.3

###

Exercise: state measured Absorption maximum wavelength [λmax] for each of the compounds provided.
- Measurement Notes: Absorption maximum wavelength, absorbance and absorption coefficient of colored solution
- Assay type: physicochemical
- Protocol Conditions: n-hexane colored solution

Recorded results for 6 compounds are shown here.
{"columns": ["Compound", "Property Label", "Result"],
 "data": [
  ["CCCCCCCCNC(=O)C1=CC(=Nc2ccc(N(CCCCCCCC)CCCCCCCC)cc2)C=C(C)C1=O [Pigment D-26]", "Absorption maximum wavelength [λmax]", "626 nm"],
  ["CCCCCCN(CCCCCC)c1ccc(N=C2C(=O)N(c3ccccc3)N=C2C(C)(C)C)c(C)c1 [Pigment D-11]", "Absorption maximum wavelength [λmax]", "502 nm"],
  ["CCCCCCN(CCCCCC)c1cc(C)c(N=C2C(C#N)=C(C(=O)OC3C(C(C)(C)C)CC(C)CC3C(C)(C)C)c3nc(C(C)(C)C)nn32)c(C)c1 [Pigment D-65]", "Absorption maximum wavelength [λmax]", "725 nm"],
  ["CCCCCCCCN1CCc2cc(/N=C3/C(C)=Nn4nc(C(C)CNC(=O)C(CCCCCC)Oc5ccc(C(C)(C)CC)cc5C(C)(C)CC)nc43)ccc21 [Pigment D-57]", "Absorption maximum wavelength [λmax]", "540 nm"],
  ["CCCCCCCCCCCCCCCCCCNC(=O)C1=CC(=Nc2ccc(N(CC)CC)cc2OC)c2ccccc2C1=O [Pigment D-43]", "Absorption maximum wavelength [λmax]", "658 nm"],
  ["CCCCCCCCOc1cc(N(CCCC)CCCC)ccc1N=C1C(=O)ON=C1c1ccccc1 [Pigment D-20]", "Absorption maximum wavelength [λmax]", "480 nm"]
]}

Kindly review the next compound as well.
Sample CCCCCCCCCCCCCCCCNC(=O)C1=CC(=Nc2ccc(N(CC)CC)cc2CC)c2ccccc2C1=O [Pigment D-38] — what was its Absorption maximum wavelength [λmax]?
630 nm
